Assay: Inhibition of sheep brain tubulin polymerization by UV spectrophotometric analysis
Set-up: species or system Ovis aries
measured.quantity: IC50 (µM)
Answers are plain numbers, in µM.

Recorded IC50, per entry:
[Q] Find the recorded IC50 belonging to `CCC1=C[C@@H]2CN(C1)[C@H](C(=O)NC(C)(C)C)[C@H](C(=O)OC)Cc1c([nH]c3ccccc13)[C@@](C(=O)OC)(c1cc3c(cc1OC)N(C)[C@H]1[C@@](O)(C(=O)OC)[C@H](OC(C)=O)[C@]4(CC)C=CCN5CC[C@]31[C@@H]54)C2` and report it.
[A] 1.1

[Q] May I ask what IC50 has been recorded for `CCC1=C[C@@H]2CN(/C=C(/C(=O)OC)Cc3c([nH]c4ccccc34)[C@@](C(=O)OC)(c3cc4c(cc3OC)N(C)[C@H]3[C@@](O)(C(=O)OC)[C@H](OC(C)=O)[C@]5(CC)C=CCN6CC[C@]43[C@@H]65)C2)C1` ?
[A] 18

[Q] Requested field: IC50. Item: `CCC1=C[C@@H]2CN(C1)[C@H](C(=O)NCc1ccccc1)[C@H](C(=O)OC)Cc1c([nH]c3ccccc13)[C@@](C(=O)OC)(c1cc3c(cc1OC)N(C)[C@H]1[C@@](O)(C(=O)OC)[C@H](OC(C)=O)[C@]4(CC)C=CCN5CC[C@]31[C@@H]54)C2`
[A] 2.7

[Q] What value of measured IC50 is listed for `C=CCNC(=O)[C@@H]1[C@H](C(=O)OC)Cc2c([nH]c3ccccc23)[C@@](C(=O)OC)(c2cc3c(cc2OC)N(C)[C@H]2[C@@](O)(C(=O)OC)[C@H](OC(C)=O)[C@]4(CC)C=CCN5CC[C@]32[C@@H]54)C[C@@H]2C=C(CC)CN1C2` ?
[A] 4.9

Then there is this compound:
[Q] Look up IC50: `CCC1=C[C@@H]2CN(C1)/C(C(=O)OC)=C(/C(=O)OC)Cc1c([nH]c3ccccc13)[C@@](C(=O)OC)(c1cc3c(cc1OC)N(C)[C@H]1[C@@](O)(C(=O)OC)[C@H](OC(C)=O)[C@]4(CC)C=CCN5CC[C@]31[C@@H]54)C2`
[A] 6

====

Tested on: HUVEC
Test: Cytotoxicity against HUVEC after 72 hrs by resazurin assay
Type: cell-based
Details: Homo sapiens
Lab note - cut at 60 nM for IC50: T if strictly below, F if not.

Some solved cases for reference:
[Q] Item `CCC1=C[C@@H]2CN(C1)/C(C(=O)NC(C)(C)C)=C(/C(=O)OC)Cc1c([nH]c3ccccc13)[C@@](C(=O)OC)(c1cc3c(cc1OC)N(C)[C@H]1[C@@](O)(C(=O)OC)[C@H](OC(C)=O)[C@]4(CC)C=CCN5CC[C@]31[C@@H]54)C2` : IC50 beneath 60 nM, strictly?
[A] T

[Q] In plain terms, does `CCC1=C[C@@H]2CN(C1)/C(C(=O)NCc1ccccc1)=C(/C(=O)OC)Cc1c([nH]c3ccccc13)[C@@](C(=O)OC)(c1cc3c(cc1OC)N(C)[C@H]1[C@@](O)(C(=O)OC)[C@H](OC(C)=O)[C@]4(CC)C=CCN5CC[C@]31[C@@H]54)C2` come in under 60 nM for IC50?
[A] T

[Q] # check: IC50 < 60 nM for `CCC1=C[C@@H]2CN(C1)[C@H](C(=O)NC(C)(C)C)[C@H](C(=O)OC)Cc1c([nH]c3ccccc13)[C@@](C(=O)OC)(c1cc3c(cc1OC)N(C)[C@H]1[C@@](O)(C(=O)OC)[C@H](OC(C)=O)[C@]4(CC)C=CCN5CC[C@]31[C@@H]54)C2`
[A] F

[Q] Hello, I'm reviewing records and need to know if IC50 of `CCC1=C[C@@H]2CN(C1)[C@H](C(=O)NC(C)C)[C@H](C(=O)OC)Cc1c([nH]c3ccccc13)[C@@](C(=O)OC)(c1cc3c(cc1OC)N(C)[C@H]1[C@@](O)(C(=O)OC)[C@H](OC(C)=O)[C@]4(CC)C=CCN5CC[C@]31[C@@H]54)C2` is below 60 nM. Could you check?
[A] F

Now for another entry.
[Q] Here's an entry: `C=CCNC(=O)/C1=C(\C(=O)OC)Cc2c([nH]c3ccccc23)[C@@](C(=O)OC)(c2cc3c(cc2OC)N(C)[C@H]2[C@@](O)(C(=O)OC)[C@H](OC(C)=O)[C@]4(CC)C=CCN5CC[C@]32[C@@H]54)C[C@@H]2C=C(CC)CN1C2` . Is its IC50 below 60 nM?
[A] F

====

Assay: Inhibition of sheep brain tubulin polymerization by UV spectrophotometric analysis
Set-up: species or system Ovis aries
measured.quantity: pIC50
Give bare numbers, as −log10 of the molar value.

[Q] Data request, read-out pIC50, for `CCC1=C[C@@H]2CN(C1)[C@H](C(=O)OC)[C@H](C(=O)OC)Cc1c([nH]c3ccccc13)[C@@](C(=O)OC)(c1cc3c(cc1OC)N(C)[C@H]1[C@@](O)(C(=O)OC)[C@H](OC(C)=O)[C@]4(CC)C=CCN5CC[C@]31[C@@H]54)C2`
[A] 5.07

[Q] Can you look up the measured pIC50 of `CCC1=C[C@@H]2CN(C1)/C(C(=O)NC(C)C)=C(/C(=O)OC)Cc1c([nH]c3ccccc13)[C@@](C(=O)OC)(c1cc3c(cc1OC)N(C)[C@H]1[C@@](O)(C(=O)OC)[C@H](OC(C)=O)[C@]4(CC)C=CCN5CC[C@]31[C@@H]54)C2` for me?
[A] 5.80

Now take the following compound into account.
[Q] Quick one: pIC50 of `CC[C@]1(O)C[C@@H]2CN(CCc3c([nH]c4ccccc34)[C@@](C(=O)OC)(c3cc4c(cc3OC)N(C)[C@H]3[C@@](O)(C(=O)OC)[C@H](OC(C)=O)[C@]5(CC)C=CCN6CC[C@]43[C@@H]65)C2)C1` ?
[A] 5.68

====

Field: IC50. Provide a value for each of the compounds that follow.
Assay: Inhibition of sheep brain tubulin polymerization by UV spectrophotometric analysis
Parameters: species or system Ovis aries
One number for each entry, in nM.

Can you give me IC50 for all of these, one by one?
1. CCC1=C[C@@H]2CN(C1)C[C@H](C(=O)OC)Cc1c([nH]c3ccccc13)[C@@](C(=O)OC)(c1cc3c(cc1OC)N(C)[C@H]1[C@@](O)(C(=O)OC)[C@H](OC(C)=O)[C@]4(CC)C=CCN5CC[C@]31[C@@H]54)C2
2. CCC1=C[C@@H]2CN(C1)/C(C(=O)NC(C)(C)C)=C(/C(=O)OC)Cc1c([nH]c3ccccc13)[C@@](C(=O)OC)(c1cc3c(cc1OC)N(C)[C@H]1[C@@](O)(C(=O)OC)[C@H](OC(C)=O)[C@]4(CC)C=CCN5CC[C@]31[C@@H]54)C2
3. CCC1=C[C@@H]2CN(C1)Cc1c([nH]c3ccccc13)[C@@](C(=O)OC)(c1cc3c(cc1OC)N(C)[C@H]1[C@@](O)(C(=O)OC)[C@H](OC(C)=O)[C@]4(CC)C=CCN5CC[C@]31[C@@H]54)C2 [VINORELBINE]
4. CCC1=C[C@@H]2CN(C1)[C@H](C(=O)NC(C)C)[C@H](C(=O)OC)Cc1c([nH]c3ccccc13)[C@@](C(=O)OC)(c1cc3c(cc1OC)N(C)[C@H]1[C@@](O)(C(=O)OC)[C@H](OC(C)=O)[C@]4(CC)C=CCN5CC[C@]31[C@@H]54)C2

[A]
[2500, 10400, 700, 500]

====

Kindly state pIC50 for each of the entries shown.
System: HUVEC
Experiment: Cytotoxicity against HUVEC after 72 hrs by resazurin assay
Format: cell-based
Details: Homo sapiens
One number for each entry, as −log10 of the molar value.

Sample answers from the record:
[Q] Requested field: pIC50. Item: `CCC1=C[C@@H]2CN(C1)Cc1c([nH]c3ccccc13)[C@@](C(=O)OC)(c1cc3c(cc1OC)N(C)[C@H]1[C@@](O)(C(=O)OC)[C@H](OC(C)=O)[C@]4(CC)C=CCN5CC[C@]31[C@@H]54)C2`
[A] 8.70

[Q] Return reported pIC50; argument: `C=CCNC(=O)[C@@H]1[C@H](C(=O)OC)Cc2c([nH]c3ccccc23)[C@@](C(=O)OC)(c2cc3c(cc2OC)N(C)[C@H]2[C@@](O)(C(=O)OC)[C@H](OC(C)=O)[C@]4(CC)C=CCN5CC[C@]32[C@@H]54)C[C@@H]2C=C(CC)CN1C2`
[A] 7.60

[Q] Could you tell me which pIC50 is on file for `CCC1=C[C@@H]2CN(C1)C[C@H](C(=O)OC)Cc1c([nH]c3ccccc13)[C@@](C(=O)OC)(c1cc3c(cc1OC)N(C)[C@H]1[C@@](O)(C(=O)OC)[C@H](OC(C)=O)[C@]4(CC)C=CCN5CC[C@]31[C@@H]54)C2` ?
[A] 8.10

# map each compound to its pIC50
1. CCC1=C[C@@H]2CN(C1)[C@H](C(=O)OC)[C@H](C(=O)OC)Cc1c([nH]c3ccccc13)[C@@](C(=O)OC)(c1cc3c(cc1OC)N(C)[C@H]1[C@@](O)(C(=O)OC)[C@H](OC(C)=O)[C@]4(CC)C=CCN5CC[C@]31[C@@H]54)C2
2. CCC1=C[C@@H]2CN(C1)/C(C(=O)NC(C)C)=C(/C(=O)OC)Cc1c([nH]c3ccccc13)[C@@](C(=O)OC)(c1cc3c(cc1OC)N(C)[C@H]1[C@@](O)(C(=O)OC)[C@H](OC(C)=O)[C@]4(CC)C=CCN5CC[C@]31[C@@H]54)C2
3. CCC1=C[C@@H]2CN(C1)/C(C(=O)OC)=C(/C(=O)OC)Cc1c([nH]c3ccccc13)[C@@](C(=O)OC)(c1cc3c(cc1OC)N(C)[C@H]1[C@@](O)(C(=O)OC)[C@H](OC(C)=O)[C@]4(CC)C=CCN5CC[C@]31[C@@H]54)C2
4. CC[C@]1(O)C[C@@H]2CN(CCc3c([nH]c4ccccc34)[C@@](C(=O)OC)(c3cc4c(cc3OC)N(C)[C@H]3[C@@](O)(C(=O)OC)[C@H](OC(C)=O)[C@]5(CC)C=CCN6CC[C@]43[C@@H]65)C2)C1
5. CCC1=C[C@@H]2CN(/C=C(/C(=O)OC)Cc3c([nH]c4ccccc34)[C@@](C(=O)OC)(c3cc4c(cc3OC)N(C)[C@H]3[C@@](O)(C(=O)OC)[C@H](OC(C)=O)[C@]5(CC)C=CCN6CC[C@]43[C@@H]65)C2)C1

[A]
1. 8.60
2. 6.15
3. 7.00
4. 9.10
5. 6.60
